// reported MC4R selectivity vs MC1R for each item listed
target: human MC4R receptor (human, UniProt P32245 1-332); assay: cell-based or functional assay
Sequence (P32245 whole entry): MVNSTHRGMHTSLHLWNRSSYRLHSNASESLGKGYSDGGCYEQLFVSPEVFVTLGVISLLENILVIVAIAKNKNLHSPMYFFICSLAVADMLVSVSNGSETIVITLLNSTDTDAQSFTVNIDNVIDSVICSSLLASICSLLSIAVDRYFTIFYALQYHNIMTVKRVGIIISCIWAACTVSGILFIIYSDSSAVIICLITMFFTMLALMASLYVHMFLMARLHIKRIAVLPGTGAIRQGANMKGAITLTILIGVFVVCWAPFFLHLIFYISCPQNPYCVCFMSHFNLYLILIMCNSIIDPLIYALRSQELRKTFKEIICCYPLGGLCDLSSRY
Starred links: 1 amine or outer side, 2 acyl side, 3 side chain; linkers in the order of their positions; H or OH if unused. Positions of bridges follow the written chain, without caps; N, C: chain ends. Non-standard residues stand in square brackets, D forms with d. Primed or numbered codes have the meaning given here. dTyr(4-OMe)″ = O-methyl-D-tyrosine, COc1ccc(C[C@@H](N[*:1])C(=O)[*:2])cc1; 3Pal = N[C@@H](Cc1cccnc1)C(=O)O; Cit = NC(=O)NCCC[C@H](N)C(=O)O; Aib = CC(C)(N)C(=O)O
Just the number, please, no unit attached.

Use these answered entries as a reference point.
1) {CH2CO}-[Aib][Cit][dF]RWC-NH2 (thioether N-6; SMILES CC1(C)NC(=O)CSC[C@@H](C(N)=O)NC(=O)[C@H](Cc2c[nH]c3ccccc23)NC(=O)[C@H](CCCNC(=N)N)NC(=O)[C@@H](Cc2ccccc2)NC(=O)[C@H](CCCNC(N)=O)NC1=O) [CTX-1649] :: 1650
2) Ac-RC[Aib]R[dTyr(4-OMe)″]RFC-NH2 (disulfide 2-8) [CTX-1298] :: 0.12

Please examine the following record next.
What value of measured MC4R selectivity vs MC1R is listed for Ac-RC[Aib][3Pal][dF]RFC-NH2 (disulfide 2-8; SMILES CC(=O)N[C@@H](CCCNC(=N)N)C(=O)N[C@H]1CSSC[C@@H](C(N)=O)NC(=O)[C@H](Cc2ccccc2)NC(=O)[C@H](CCCNC(=N)N)NC(=O)[C@@H](Cc2ccccc2)NC(=O)[C@H](Cc2cccnc2)NC(=O)C(C)(C)NC1=O) [CTX-1605] ?
0.14
